Reference source: ChEMBL document CHEMBL1156690

Biological target: Human immunodeficiency virus type 1 integrase (Human immunodeficiency virus 1)
Sequence (Q7ZJM1 whole entry): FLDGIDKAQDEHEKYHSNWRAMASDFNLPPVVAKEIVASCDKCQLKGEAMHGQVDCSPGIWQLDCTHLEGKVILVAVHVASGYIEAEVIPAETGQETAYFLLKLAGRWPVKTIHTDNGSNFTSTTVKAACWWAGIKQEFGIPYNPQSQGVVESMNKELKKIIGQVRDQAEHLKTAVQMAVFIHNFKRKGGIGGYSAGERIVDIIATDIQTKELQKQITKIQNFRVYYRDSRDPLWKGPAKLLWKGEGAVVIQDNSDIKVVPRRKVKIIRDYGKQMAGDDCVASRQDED
Experiment: Inhibition of HIV1 integrase 3' processing activity
RECORDED_METRIC: IC50 (µM)

1. Cc1cc(S(=O)(=O)Nc2nc3cscc3c(=O)n2N)c(S)cc1Cl ... 69
2. Cc1cc(S(=O)(=O)Nc2nc3ccccc3c(=O)n2Cc2ccco2)c(S)cc1Cl ... 78
3. Cc1cc(S(=O)(=O)Nc2nc(N)n[nH]2)c(S)cc1Cl ... 4.79

A: Cc1cc(S(=O)(=O)Nc2nc3ccsc3c(=O)n2Cc2ccccc2)c(S)cc1Cl
B: Cc1cc(S(=O)(=O)Nc2nc3cc(-c4ccc(Cl)cc4)sc3c(=O)n2Cc2ccccc2)c(S)cc1Cl
INPUT: // compare measured IC50, left A , right B , return larger Identify your pick by its label.
OUTPUT: A
(A: 53 µM, B: 6 µM)

###

Test system: LOX IMVI
Experiment: Growth inhibition of human LOX IMVI cells
Assay type: functional
Conditions: Homo sapiens, LOX IMVI
# maps each entry to its GI50

1) Cc1cc(S(=O)(=O)Nc2nc3cc(-c4ccccc4)sc3c(=O)n2Cc2ccccc2)c(S)cc1Cl ... > 100 µM
2) Cc1cc(S(=O)(=O)Nc2nc3cc(-c4ccc(Cl)cc4)sc3c(=O)n2Cc2ccccc2)c(S)cc1Cl ... > 100 µM
3) Cc1cc(S(=O)(=O)Nc2nc3cscc3c(=O)n2Cc2ccccc2)c(S)cc1Cl ... 18.2 µM

INPUT: Write down the reported GI50 of Cc1cc(S(=O)(=O)Nc2nc3cc(-c4ccsc4)sc3c(=O)n2Cc2ccco2)c(S)cc1Cl , test system: LOX IMVI.
OUTPUT: > 100 µM

###

Tested on: EKVX
Assay: Growth inhibition of human EKVX cells
Type: functional
RECORDED_METRIC: GI50

Would you please look over these solved cases?
1) Cc1cc(S(=O)(=O)Nc2nc3ccccc3c(=O)n2N)c(S)cc1Cl ... 14.8 µM
2) Cc1cc(S(=O)(=O)Nc2nc3cc(-c4ccc(Cl)cc4)sc3c(=O)n2Cc2ccccc2)c(S)cc1Cl ... > 100 µM
3) Cc1cc(S(=O)(=O)Nc2nc3cc(-c4ccsc4)sc3c(=O)n2Cc2ccco2)c(S)cc1Cl ... > 100 µM

Shift focus to the following entry.
INPUT: For the compound Cc1cc(S(=O)(=O)Nc2nc3cc(-c4ccccc4)sc3c(=O)n2Cc2ccccc2)c(S)cc1Cl , what GI50 is on record?
OUTPUT: > 100 µM

###

Test system: KM12
Assay: Growth inhibition of human KM12 cells
Type: functional
RECORDED_METRIC: GI50 (µM)
Report only the number, with the unit µM understood.

1. Cc1cc(S(=O)(=O)Nc2nc3ccsc3c(=O)n2Cc2ccccc2)c(S)cc1Cl ... 19.9

Here is another molecule to look at.
INPUT: Item Cc1cc(S(=O)(=O)Nc2nc3cscc3c(=O)n2Cc2ccccc2)c(S)cc1Cl with KM12 - GI50?
OUTPUT: 19.9

###

Tested on: HOP-62
Test: Growth inhibition of human HOP62 cells
Assay type: functional
Reported GI50 by item:
Report the value in µM with no unit label.

1) Cc1cc(S(=O)(=O)Nc2nc3ccsc3c(=O)n2Cc2ccccc2)c(S)cc1Cl ... 19.7

INPUT: Query for HOP-62: what GI50 does the record show for Cc1cc(S(=O)(=O)Nc2nc3cscc3c(=O)n2Cc2ccccc2)c(S)cc1Cl ?
OUTPUT: 16.5
